Experiment: in vivo
Set-up: species or system nude mice
Settings: nude, mouse, total radioactivity, Tumor-to-tissue ratio Sm. Intestine
*1 amine or outer side, *2 acyl side, *3 side chain or, on linkers, in order; H or OH if unused. Where a SMILES comes first, the peptide text is derived from it. Side-chain parts run from the residue outwards. [ ]: non-standard residue; d: D form. The star is where a group is joined. DOTA = O=C(O)CN1CCN(CC(=O)O)CCN(CC(=O)*)CCN(CC(=O)O)CC1; NH(2-(imidazol-4-yl)ethyl) = c1ncc(CCN*)[nH]1; Suc = O=C(CCC(=O)[*:2])[*:1]
measured-quantity: tissue to tissue ratio at 1 h
A bare number is all that is needed in reply.

Incoming: For NC(=O)[C@H](CCCCNC(=O)CNC(=O)CCC(=O)NCCc1cnc[nH]1)NC(=O)[C@@H](Cc1ccc(O)cc1)NC(=O)[C@H](CCCCNC(=O)CNC(=O)CCC(=O)NCCc1cnc[nH]1)NC(=O)[C@H](Cc1ccccc1)NC(=O)CN1CCN(CC(=O)O)CCN(CC(=O)O)CCN(CC(=O)O)CC1 [Ga-67-IMP 241, metal not drawn] ({DOTA}-FK([Gly-Suc-NH(2-(imidazol-4-yl)ethyl)])[dY]K([Gly-Suc-NH(2-(imidazol-4-yl)ethyl)])-NH2) , what is its reported tissue to tissue ratio at 1 h?
Outgoing: 18.6

====

Test: in vivo
Set-up: species or system nude mice
Settings: nude, mouse, total radioactivity, Tumor-to-tissue ratio Lungs
Method: The bispecific antibody I-125-hMN-14×679-F(ab′)2 (anti-CEA×anti-HSG, radiolabeled with iodine-125 as a tracer radionuclide) was injected into nude mice bearing GW39 human colon tumor xenografts. […] At specified times post-injection, five animals per time-point were sacrificed and tissues collected and counted for both I-125 and Ga-67 radioactivity, using dual energy windows for each respective radionuclide. […]
*1 amine or outer side, *2 acyl side, *3 side chain or, on linkers, in order; H or OH if unused. Where a SMILES comes first, the peptide text is derived from it. Side-chain parts run from the residue outwards. [ ]: non-standard residue; d: D form. The star is where a group is joined. DOTA = O=C(O)CN1CCN(CC(=O)O)CCN(CC(=O)*)CCN(CC(=O)O)CC1; NH(2-(imidazol-4-yl)ethyl) = c1ncc(CCN*)[nH]1; Suc = O=C(CCC(=O)[*:2])[*:1]
measured-quantity: tissue to tissue ratio at 2 h

Incoming: Sample NC(=O)[C@H](CCCCNC(=O)CNC(=O)CCC(=O)NCCc1cnc[nH]1)NC(=O)[C@@H](Cc1ccc(O)cc1)NC(=O)[C@H](CCCCNC(=O)CNC(=O)CCC(=O)NCCc1cnc[nH]1)NC(=O)[C@H](Cc1ccccc1)NC(=O)CN1CCN(CC(=O)O)CCN(CC(=O)O)CCN(CC(=O)O)CC1 [Ga-67-IMP 241, metal not drawn] ({DOTA}-FK([Gly-Suc-NH(2-(imidazol-4-yl)ethyl)])[dY]K([Gly-Suc-NH(2-(imidazol-4-yl)ethyl)])-NH2) — what was its tissue to tissue ratio at 2 h?
Outgoing: 13.1

====

Assay: in vivo
Set-up: species or system nude mice
Conditions: nude, mouse, total radioactivity, Tumor-to-tissue ratio Lungs
*1 amine or outer side, *2 acyl side, *3 side chain or, on linkers, in order; H or OH if unused. Where a SMILES comes first, the peptide text is derived from it. Side-chain parts run from the residue outwards. [ ]: non-standard residue; d: D form. The star is where a group is joined. DOTA = O=C(O)CN1CCN(CC(=O)O)CCN(CC(=O)*)CCN(CC(=O)O)CC1; NH(2-(imidazol-4-yl)ethyl) = c1ncc(CCN*)[nH]1; Suc = O=C(CCC(=O)[*:2])[*:1]
measured-quantity: tissue to tissue ratio at 3 h
Respond with the number and no other words.

Incoming: Need tissue to tissue ratio at 3 h of NC(=O)[C@H](CCCCNC(=O)CNC(=O)CCC(=O)NCCc1cnc[nH]1)NC(=O)[C@@H](Cc1ccc(O)cc1)NC(=O)[C@H](CCCCNC(=O)CNC(=O)CCC(=O)NCCc1cnc[nH]1)NC(=O)[C@H](Cc1ccccc1)NC(=O)CN1CCN(CC(=O)O)CCN(CC(=O)O)CCN(CC(=O)O)CC1 [Ga-67-IMP 241, metal not drawn] ({DOTA}-FK([Gly-Suc-NH(2-(imidazol-4-yl)ethyl)])[dY]K([Gly-Suc-NH(2-(imidazol-4-yl)ethyl)])-NH2) , thanks.
Outgoing: 11.4

Provenance of the data: patent US7011816B2
